- procedureDetails: Rat oral pharmacokinetic study
- Assay type: in vivo, Sprague Dawley rats
- conditions: Sprague Dawley; male rat, single PO 400 mg/kg of compound 9, 5% TPGS/5% PVP-K30/50 mM Citrate pH 5, analyte 9a in plasma, mean ± SD

{"compound": "Cc1cc(F)ccc1Oc1cc(C(F)(F)F)ccc1C(=O)Nc1cc[nH]c(=O)c1 [Compound 9a]", "AUC / ng·h/mL": 68600}

----------
- procedureDetails: Rat oral pharmacokinetic study
- Assay type: in vivo, Sprague Dawley rats
- conditions: Sprague Dawley; female rat, single PO 640 mg/kg of compound 9, 5% TPGS/5% PVP-K30/50 mM Citrate pH 5, analyte 9a in plasma, mean ± SD
measuredEndpoint: Cmax (ng/mL)

{"smilesString": "Cc1cc(F)ccc1Oc1cc(C(F)(F)F)ccc1C(=O)Nc1cc[nH]c(=O)c1", "unitTag": "ng/mL", "valueObserved": 10000}
